Tested on: human γ-globin promoter (EGFP reporter) in K562 cells
Assay: HbF activation assay on K562 (EGFP/RFP reporter model system for screening of inducers of fetal hemoglobin)
Assay type: cell-based
Conditions: 60 hours
Source text: In order to test several compounds, a model system was produced based on previous findings present in the literature. […]
// reported EC50 per item

Input: Provide only the value of recorded EC50 for CCC(=O)CCCCC[C@H](NC(=O)C1CN(Cc2ccccc2)C1)c1ncc(-c2cc3ccccc3nc2OC)o1
Output: > 1 µM

Input: Provide only the value of recorded EC50 for CCC(=O)CCCCC[C@H](NC(=O)C1CN(C(C)=O)C1)c1ncc(-c2ccc(-n3cccn3)cc2)o1
Output: > 1 µM

Input: Provide only the value of recorded EC50 for CCC(=O)CCCCC[C@H](NC(=O)c1cncs1)c1nnc(-c2cc3ccccc3nc2OC)o1
Output: > 1 µM

Input: Provide only the value of recorded EC50 for CCC(=O)CCCCC[C@H](NC(=O)C1CN(C)C1)c1ncc(-c2cccc3cccnc23)o1
Output: > 1 µM

Input: Provide only the value of recorded EC50 for CCC(=O)CCCCC[C@H](NC(=O)c1ccn(C)n1)c1ncc(-c2cc3ccccc3nc2OC)o1
Output: > 1 µM

Input: Provide only the value of recorded EC50 for CCC(=O)CCCCC[C@@H](NC(=O)C1CN(C)C1)c1ncc(-c2cc3ccccc3nc2OC)o1
Output: > 1 µM

Input: Provide only the value of recorded EC50 for CCC(=O)CCCCC[C@H](NC(=O)c1ccns1)c1ncc(-c2cc3ccccc3nc2OC)o1
Output: 0.1 to 1 µM

Input: Provide only the value of recorded EC50 for CCC(=O)CCCCC[C@H](NC(=O)C1(C)CN(C)C1)c1ncc(-c2cc3ccccc3nc2OC)o1
Output: 0.1 to 1 µM

Input: Provide only the value of recorded EC50 for CCC(=O)CCCCC[C@H](NC(=O)Cn1cnc2ccccc21)c1ncc(-c2cc3ccccc3nc2OC)o1
Output: > 1 µM

Input: Provide only the value of recorded EC50 for CCC(=O)CCCCC[C@H](NC(=O)CCC1CCCN(C)C1)c1ncc(-c2ccccc2)o1 (stereo partly drawn)
Output: > 1 µM

Input: Provide only the value of recorded EC50 for CCC(=O)CCCCC[C@H](NC(=O)CCN(C)C)c1ncc(-c2cc3ccccc3nc2OC)o1
Output: 0.1 to 1 µM

Input: Provide only the value of recorded EC50 for CCC(=O)CCCCC[C@H](NC(=O)Cn1ccc(C)n1)c1ncc(-c2cc3ccccc3nc2OC)o1
Output: > 1 µM
